Every entry's value here was drawn from patent US10238670B2.

test: Phase 1b study in female adults with cystitis, plasma PK
Type: in vivo, human
assay setup: female, human, plasma, intravenous, 200 mg, Day 1; 200 mg IV, 300 mg po (n = 11); median; read-out: tmax
property name: Tmax (min)

1. CN(C)c1cc(CNCC(C)(C)C)c(O)c2c1C[C@H]1C[C@H]3[C@H](N(C)C)C(O)=C(C(N)=O)C(=O)[C@@]3(O)C(O)=C1C2=O [Compound 1]; 45

----------
test: Phase 1b study in female adults with cystitis, plasma PK
Type: in vivo, human
assay setup: female, human, plasma, intravenous, 200 mg, plasma, Day 1, IV_PO300; read-out: Tmax, Median
Procedure: According to the study design, a randomized (1:1:1), open-label, parallel designed Phase 1b study comparing 3 dosing regimens of Compound 1 (9-[(2,2-dimethyl-propyl amino)-methyl-minocycline) in the treatment of female adults with cystitis was conducted. […] Blood samples were collected and analyzed for Compound 1 concentration at the following times. […]
property name: Tmax (min)

1. CN(C)c1cc(CNCC(C)(C)C)c(O)c2c1C[C@H]1C[C@H]3[C@H](N(C)C)C(O)=C(C(N)=O)C(=O)[C@@]3(O)C(O)=C1C2=O; 45
